- Target: Cell division protein FtsZ (Staphylococcus aureus, UniProt P0A031)
- Sequence (P0A031 whole entry): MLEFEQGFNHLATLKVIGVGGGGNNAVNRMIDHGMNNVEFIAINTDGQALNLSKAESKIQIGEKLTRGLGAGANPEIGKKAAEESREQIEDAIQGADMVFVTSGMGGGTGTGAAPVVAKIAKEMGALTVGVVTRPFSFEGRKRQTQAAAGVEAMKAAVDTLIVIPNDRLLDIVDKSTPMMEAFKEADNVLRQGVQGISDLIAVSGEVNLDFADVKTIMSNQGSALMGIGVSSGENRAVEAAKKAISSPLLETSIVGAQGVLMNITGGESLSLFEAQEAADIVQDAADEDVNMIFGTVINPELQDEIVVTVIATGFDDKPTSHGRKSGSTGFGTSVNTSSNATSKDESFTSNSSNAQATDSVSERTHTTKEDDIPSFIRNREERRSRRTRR
Parameter Measured: IC50 (µM)
Quick note: give the figure in µM, leave out the unit.

For the compound NC(=O)c1c(F)ccc(OCc2nc3cc(Cl)cnc3s2)c1F , give its reported IC50.
0.15
